- test_details: Serum concentration in mice after subcutaneous administration
- Format: in vivo
- run_conditions: mouse, sc, subcutaneous 25 mg/kg, 1/12 hr
Counter-ions that a name gives are not always drawn.
parameter: concentration at 5 min (ng/mL)
Value expressed in ng/mL; do not type the unit.

Which concentration at 5 min reading was recorded for the molecule CO/N=C(\C(=O)N[C@@H]1C(=O)N2C(C(=O)O)=C(CSc3cc[n+](CC(=O)O)cc3)CS[C@H]12)c1csc(N)n1.[Na+] ? 20000

Which concentration at 5 min reading was recorded for the molecule CO/N=C(\C(=O)N[C@@H]1C(=O)N2C(C(=O)[O-])=C(CSc3cc[n+](CC(=O)O)c4c3CCC4)CS[C@H]12)c1csc(N)n1 [Example 34, sodium salt] ? 25000

Which concentration at 5 min reading was recorded for the molecule C[n+]1ccc(SCC2=C(C(=O)[O-])N3C(=O)[C@@H](NC(=O)/C(=N\OCC(=O)O)c4csc(N)n4)[C@H]3SC2)c2c1CCC2 [Example 51, sodium salt] ? 27000

Which concentration at 5 min reading was recorded for the molecule CCO/N=C(\C(=O)N[C@@H]1C(=O)N2C(C(=O)O)=C(CSc3cc[n+](CC(=O)O)cc3)CS[C@H]12)c1csc(N)n1.[Na+] ? 26000

* * *

- System: Proteus rettgeri GN624
- test_details: Minimum Growth Inhibitory Concentration (MIC), Proteus rettgeri GN624
- Assay type: cell-based
- run_conditions: Providencia rettgeri; Table 2, bacterium 9: Proteus rettgeri GN624; read-out: Minimum Growth Inhibitory Concentration (MIC)
Where a name gives a salt, the structure may show the parent alone.
parameter: log10 MIC (log10 of the value in µg/mL)
log10 MIC, µg/mL

Which log10 MIC reading was recorded for the compound CCO/N=C(\C(=O)N[C@@H]1C(=O)N2C(C(=O)[O-])=C(CSc3cc[n+](CC(F)(F)F)cc3)CS[C@H]12)c1csc(N)n1 ? -1.00

Which log10 MIC reading was recorded for the compound CC(C)(O/N=C(\C(=O)N[C@@H]1C(=O)N2C(C(=O)[O-])=C(CSc3cc[n+](CC(F)(F)F)cc3)CS[C@H]12)c1csc(N)n1)C(=O)O [Example 83, sodium salt] ? -0.70

Which log10 MIC reading was recorded for the compound CCO/N=C(\C(=O)N[C@@H]1C(=O)N2C(C(=O)[O-])=C(CSc3cc[n+](C(C(=O)O)c4ccccc4)cc3)CS[C@H]12)c1csc(N)n1 (some centres unmarked) [Example 32, sodium salt] ? -0.41

Which log10 MIC reading was recorded for the compound CO/N=C(\C(=O)N[C@@H]1C(=O)N2C(C(=O)[O-])=C(CSc3cc[n+](CC(F)(F)F)cc3)CS[C@H]12)c1csc(N)n1 ? -0.70

Which log10 MIC reading was recorded for the compound CO/N=C(\C(=O)N[C@@H]1C(=O)N2C(C(=O)[O-])=C(CSc3cc[n+](CCF)cc3)CS[C@H]12)c1csc(N)n1 ? -1.00

Which log10 MIC reading was recorded for the compound CCO/N=C(\C(=O)N[C@@H]1C(=O)N2C(C(=O)[O-])=C(CSc3cccc[n+]3CC(=O)O)CS[C@H]12)c1csc(N)n1 [Example 33, sodium salt] ? 0.80

Which log10 MIC reading was recorded for the compound CCO/N=C(\C(=O)N[C@@H]1C(=O)N2C(C(=O)[O-])=C(CSc3cc[n+](C(C)C(=O)O)cc3)CS[C@H]12)c1csc(N)n1 (some centres unmarked) [Example 31, sodium salt] ? -0.11

* * *

- test_details: Serum concentration in mice after subcutaneous administration
- Assay type: in vivo
- run_conditions: mouse, sc, subcutaneous 25 mg/kg, 1/4 hr
Counter-ions that a name gives are not always drawn.
What concentration at 0.25 h was measured for each of the following?
Value expressed in ng/mL; do not type the unit.

Which concentration at 0.25 h reading was recorded for the compound CO/N=C(\C(=O)N[C@@H]1C(=O)N2C(C(=O)[O-])=C(CSc3cc[n+](CC(=O)O)c4c3CCC4)CS[C@H]12)c1csc(N)n1 [Example 34, sodium salt] ? 35000

Which concentration at 0.25 h reading was recorded for the compound CCO/N=C(\C(=O)N[C@@H]1C(=O)N2C(C(=O)O)=C(CSc3cc[n+](CC(=O)O)cc3)CS[C@H]12)c1csc(N)n1.[Na+] ? 31000

Which concentration at 0.25 h reading was recorded for the compound CO/N=C(\C(=O)N[C@@H]1C(=O)N2C(C(=O)O)=C(CSc3cc[n+](CC(=O)O)cc3)CS[C@H]12)c1csc(N)n1.[Na+] ? 28000

Which concentration at 0.25 h reading was recorded for the compound C[n+]1ccc(SCC2=C(C(=O)[O-])N3C(=O)[C@@H](NC(=O)/C(=N\OCC(=O)O)c4csc(N)n4)[C@H]3SC2)c2c1CCC2 [Example 51, sodium salt] ? 34000

* * *

- Tested on: Proteus mirabilis GN 79
- test_details: Minimum Growth Inhibitory Concentration (MIC), Proteus mirabilis GN 79
- Type: cell-based
- run_conditions: Proteus mirabilis, GN79, read-out: Minimum Growth Inhibitory Concentration (MIC)
What MIC was measured for each of the following?
Value expressed in µg/mL; do not type the unit.

What reported MIC corresponds to CO/N=C(\C(=O)N[C@@H]1C(=O)N2C(C(=O)O)=C(CSc3cc[n+](CC(=O)O)cc3)CS[C@H]12)c1csc(N)n1.[Na+] on Proteus mirabilis GN 79? 0.2

What reported MIC corresponds to CCO/N=C(\C(=O)N[C@@H]1C(=O)N2C(C(=O)O)=C(CSc3cc[n+](CC(=O)O)cc3)CS[C@H]12)c1csc(N)n1.[Na+] on Proteus mirabilis GN 79? 0.39

What reported MIC corresponds to C=CCO/N=C(\C(=O)N[C@@H]1C(=O)N2C(C(=O)O)=C(CSc3cc[n+](CC(=O)O)cc3)CS[C@H]12)c1csc(N)n1.[Na+] on Proteus mirabilis GN 79? 0.05

What reported MIC corresponds to Nc1nc(/C(=N/OCC(=O)O)C(=O)N[C@@H]2C(=O)N3C(C(=O)O)=C(CSc4cc[n+](CC(=O)O)cc4)CS[C@H]23)cs1.[Na+] on Proteus mirabilis GN 79? 0.79

* * *

Counter-ions that a name gives are not always drawn.
What MIC was measured for each of the following?
Answer as a quantity: numeral, then unit.

What reported MIC corresponds to CO/N=C(\C(=O)N[C@@H]1C(=O)N2C(C(=O)[O-])=C(CSc3cc(C)[n+](C)c4c3CCC4)CS[C@H]12)c1csc(N)n1 on Bacillus subtilis? 0.2 µg/mL

What reported MIC corresponds to CO/N=C(\C(=O)N[C@@H]1C(=O)N2C(C(=O)[O-])=C(CSc3cc[n+](CCS(=O)(=O)O)c4c3CCC4)CS[C@H]12)c1csc(N)n1 [Example 39, sodium salt] on Bacillus subtilis? 1.56 µg/mL

What reported MIC corresponds to CO/N=C(\C(=O)N[C@@H]1C(=O)N2C(C(=O)[O-])=C(CSc3ccc4c([n+]3C)CCC4)CS[C@H]12)c1csc(N)n1 on Bacillus subtilis? 1.56 µg/mL

What reported MIC corresponds to CO/N=C(\C(=O)N[C@@H]1C(=O)N2C(C(=O)[O-])=C(CSc3cc[n+](CC(N)=O)c4c3CCC4)CS[C@H]12)c1csc(N)n1 on Bacillus subtilis? 0.2 µg/mL

What reported MIC corresponds to CO/N=C(\C(=O)N[C@@H]1C(=O)N2C(C(=O)[O-])=C(CSc3cc[n+](CC(=O)O)c4c3CCC4)CS[C@H]12)c1csc(N)n1 [Example 34, sodium salt] on Bacillus subtilis? 1.56 µg/mL

What reported MIC corresponds to C[n+]1ccc(SCC2=C(C(=O)[O-])N3C(=O)[C@@H](NC(=O)/C(=N\OCC(=O)O)c4csc(N)n4)[C@H]3SC2)c2c1CCC2 [Example 51, sodium salt] on Bacillus subtilis? 0.05 µg/mL

* * *

- test_details: Toxicity test in mice (intravenous)
- Assay type: in vivo
- run_conditions: mouse, in vivo; mice, intravenous, survivors after a week
parameter: LD50 at 168 h

Which LD50 at 168 h reading was recorded for the molecule CCO/N=C(\C(=O)N[C@@H]1C(=O)N2C(C(=O)O)=C(CSc3cc[n+](CC(=O)O)cc3)CS[C@H]12)c1csc(N)n1.[Na+] ? ≥ 1000 mg/kg

* * *

What MIC was measured for each of the following?
- Tested on: Proteus vulgaris GN 76
- test_details: Minimum Growth Inhibitory Concentration (MIC), Proteus vulgaris GN 76
- Format: cell-based
- run_conditions: GN76; Table 2, bacterium 8: Proteus vulgaris GN 76; read-out: Minimum Growth Inhibitory Concentration (MIC)
Counter-ions that a name gives are not always drawn.

Which MIC reading was recorded for the molecule CO/N=C(\C(=O)N[C@@H]1C(=O)N2C(C(=O)[O-])=C(CSc3cc[n+](CC(F)(F)F)cc3)CS[C@H]12)c1csc(N)n1 ? 0.78 µg/mL

Which MIC reading was recorded for the molecule CCO/N=C(\C(=O)N[C@@H]1C(=O)N2C(C(=O)[O-])=C(CSc3cc[n+](C(C)C(=O)O)cc3)CS[C@H]12)c1csc(N)n1 (some centres unmarked) [Example 31, sodium salt] ? 1.56 µg/mL

Which MIC reading was recorded for the molecule CCO/N=C(\C(=O)N[C@@H]1C(=O)N2C(C(=O)[O-])=C(CSc3cc[n+](CC(F)(F)F)cc3)CS[C@H]12)c1csc(N)n1 ? 0.39 µg/mL

Which MIC reading was recorded for the molecule CC(C)(O/N=C(\C(=O)N[C@@H]1C(=O)N2C(C(=O)[O-])=C(CSc3cc[n+](CC(F)(F)F)cc3)CS[C@H]12)c1csc(N)n1)C(=O)O [Example 83, sodium salt] ? 0.2 µg/mL

Which MIC reading was recorded for the molecule Nc1nc(/C(=N/OCC(=O)O)C(=O)N[C@@H]2C(=O)N3C(C(=O)[O-])=C(CSc4cc[n+](CC(F)(F)F)cc4)CS[C@H]23)cs1 [Example 82, sodium salt] ? 0.05 µg/mL

Which MIC reading was recorded for the molecule CCO/N=C(\C(=O)N[C@@H]1C(=O)N2C(C(=O)[O-])=C(CSc3cc[n+](C(C(=O)O)c4ccccc4)cc3)CS[C@H]12)c1csc(N)n1 (some centres unmarked) [Example 32, sodium salt] ? 0.78 µg/mL

Which MIC reading was recorded for the molecule CCO/N=C(\C(=O)N[C@@H]1C(=O)N2C(C(=O)[O-])=C(CSc3cccc[n+]3CC(=O)O)CS[C@H]12)c1csc(N)n1 [Example 33, sodium salt] ? 0.39 µg/mL

Which MIC reading was recorded for the molecule CO/N=C(\C(=O)N[C@@H]1C(=O)N2C(C(=O)[O-])=C(CSc3cc[n+](CCF)cc3)CS[C@H]12)c1csc(N)n1 ? 0.2 µg/mL
